assayed target: SHP2-C SH2;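 note: peptide library displayed on the E. coli surface as eCPX fusions, selected cells deep-sequenced, score is each peptide's frequency after selection divided by its frequency in the input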
test name: SH2 binding enrichment of the phosphorylated peptide, bacterial display (enrichment ratio); higher = better substrate or ligand; peptides without Tyr show the background
Reported SH2 binding enrichment is given for each of the following sequences.
Answer using only a numeral; do not append any unit.

Answered examples (5):
Field request: SH2 binding enrichment | item: LRSKQYLRNPP [SHC1_Y315_F312S]
0.82

Likewise for ESMNTYLQTSP [NAT1_Y208] ?
0.795

Now this one: IPGGIYDADLN [CST4_Y35]
0.876

Moving on to SKEPYYVHCIK [MYO1D_Y586_R588H]
1.04

FKEQGYHRLPP [RIN1_Y681_YF] ?
0.77

More entries:
Field request: SH2 binding enrichment | item: RVGVDYEGRGC [PLOD1_Y675_G678R]
0.797

Another sequence to check: NNRVFYGNSDR [RS1_Y177]
0.735

How about HFVDEYDRTIE [KRAS_Y32_P34R] ?
0.682

Also YGMQLYQKYMH [GRB14_Y347_N349K] , if possible.
0.64

Can you handle VIVRMYDFHVL [RPF2_Y109_G106V_YF] next?
1.28

Next sequence: PSAELYSYALP [PDGFRB_Y716_N718Y]
0.641

// same read-out, input: KWRGQYDVAIR [BTK_Y425_K430R]
1.57

Next entry: NVVQEYERVII [NPHS2_Y131_K126N]
0.831

// query: GRLFAYPDTHC [CAT_Y358_R363C]
0.846

====

assayed target: Jak2 (UniProt O60674)
Sequence (O60674 whole entry, looked up): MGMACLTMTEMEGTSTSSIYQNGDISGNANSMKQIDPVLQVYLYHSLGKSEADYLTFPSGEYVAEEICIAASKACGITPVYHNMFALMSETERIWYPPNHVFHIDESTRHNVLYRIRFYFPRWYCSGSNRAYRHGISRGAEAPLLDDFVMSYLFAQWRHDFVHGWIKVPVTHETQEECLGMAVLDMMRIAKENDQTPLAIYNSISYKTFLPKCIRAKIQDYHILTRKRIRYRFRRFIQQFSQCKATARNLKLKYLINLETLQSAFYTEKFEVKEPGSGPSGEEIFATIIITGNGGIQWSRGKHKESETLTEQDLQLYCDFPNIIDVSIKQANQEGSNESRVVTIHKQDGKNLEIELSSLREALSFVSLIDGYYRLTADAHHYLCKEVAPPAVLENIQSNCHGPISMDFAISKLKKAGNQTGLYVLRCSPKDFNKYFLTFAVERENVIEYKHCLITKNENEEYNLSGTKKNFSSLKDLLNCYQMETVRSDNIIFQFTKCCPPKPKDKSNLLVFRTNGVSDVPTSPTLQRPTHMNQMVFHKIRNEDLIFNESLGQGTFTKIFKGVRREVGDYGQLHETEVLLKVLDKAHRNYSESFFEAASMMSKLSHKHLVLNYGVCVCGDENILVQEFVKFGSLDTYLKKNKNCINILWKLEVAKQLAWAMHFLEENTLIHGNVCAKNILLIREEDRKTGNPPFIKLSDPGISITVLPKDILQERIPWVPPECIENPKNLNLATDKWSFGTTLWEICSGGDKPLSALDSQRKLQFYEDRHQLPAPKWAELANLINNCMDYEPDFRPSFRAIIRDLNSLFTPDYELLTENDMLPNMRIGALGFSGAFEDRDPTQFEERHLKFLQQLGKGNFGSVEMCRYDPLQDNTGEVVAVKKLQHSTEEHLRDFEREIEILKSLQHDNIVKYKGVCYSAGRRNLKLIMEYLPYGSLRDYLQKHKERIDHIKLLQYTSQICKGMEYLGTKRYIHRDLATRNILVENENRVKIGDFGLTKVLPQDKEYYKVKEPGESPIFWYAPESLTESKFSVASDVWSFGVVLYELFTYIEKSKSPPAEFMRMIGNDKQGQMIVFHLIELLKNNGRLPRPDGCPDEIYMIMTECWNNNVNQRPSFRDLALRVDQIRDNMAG
test name: phosphorylation enrichment, bacterial display (enrichment ratio); higher = better substrate or ligand; peptides without Tyr show the background
In this section, each of the sequences is paired with its reported phosphorylation enrichment.
Just the number, please.

Lab note: need phosphorylation enrichment for WQQQSYLYSGI [CTNNB1_Y30_D32Y] on Jak2 (UniProt O60674), anyone have it?
1.52

Proceed to SVSNNYIQTLG [CTNND1_Y174]
0.508

Input CSKRFYQLTKL [AR_Y858_R855K]
0.706

Entry to check: AIIEEYLHLND [EIF4G1_Y1253]
0.959

What do we get for DSYWSYCNAVA [SLC20A2_Y436_S434W] ?
1.27

# repeat for VHNLNYFKKTT [FGFR3_Y647_D646N_YF]
0.467

Note: attention shifts to another entry.
Query the reported phosphorylation enrichment for Jak2 (UniProt O60674); item: MIRSAYALGGL [CPS1_Y590]
0.597

====

assayed target: FGFR1 (UniProt P11362)
Sequence (P11362 whole entry, looked up): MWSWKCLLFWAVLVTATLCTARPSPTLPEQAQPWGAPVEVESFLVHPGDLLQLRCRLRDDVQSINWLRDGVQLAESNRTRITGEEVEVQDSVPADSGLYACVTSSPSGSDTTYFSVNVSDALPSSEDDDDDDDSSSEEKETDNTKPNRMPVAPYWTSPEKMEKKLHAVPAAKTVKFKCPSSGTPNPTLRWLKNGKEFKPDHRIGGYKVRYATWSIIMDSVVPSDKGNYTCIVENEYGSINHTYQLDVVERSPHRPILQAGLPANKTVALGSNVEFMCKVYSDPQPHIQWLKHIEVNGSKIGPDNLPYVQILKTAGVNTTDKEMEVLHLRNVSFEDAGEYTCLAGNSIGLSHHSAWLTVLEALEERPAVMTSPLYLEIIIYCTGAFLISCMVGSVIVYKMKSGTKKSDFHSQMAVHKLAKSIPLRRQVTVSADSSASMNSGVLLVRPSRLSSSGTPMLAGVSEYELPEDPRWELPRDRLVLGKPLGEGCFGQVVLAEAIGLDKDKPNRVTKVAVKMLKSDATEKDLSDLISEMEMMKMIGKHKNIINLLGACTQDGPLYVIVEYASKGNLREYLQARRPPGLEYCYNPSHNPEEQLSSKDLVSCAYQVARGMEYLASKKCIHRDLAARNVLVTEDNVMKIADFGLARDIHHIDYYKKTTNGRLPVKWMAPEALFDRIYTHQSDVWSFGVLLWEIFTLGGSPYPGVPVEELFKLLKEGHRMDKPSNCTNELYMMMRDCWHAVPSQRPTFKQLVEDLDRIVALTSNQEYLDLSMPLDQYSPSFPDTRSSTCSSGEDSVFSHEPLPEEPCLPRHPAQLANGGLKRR
test name: phosphorylation enrichment, bacterial display (enrichment ratio); higher = better substrate or ligand; peptides without Tyr show the background
measured parameter: phosphorylation enrichment
// response body must contain only the number

Some sequences with recorded phosphorylation enrichment:
Looking for the measured phosphorylation enrichment of ERTIEYLEEVA [HADHA_Y239] , can you help?
0.608

How about this sequence: CTTIQYNFMCN [TP53_Y234_H233Q_YF]
0.586

Please answer likewise for SVIVPYEPPEV [TP53_Y220_V217I]
0.6

Try this sequence next: GDGRFYMKEAI [PGM1_Y66]
0.52

Now consider FPPDGYSRHFE [CTNND1_Y213_YF] .
0.398

Entry to check: ARLEYYENEKK [IRS1_Y47]
0.592

Further, for EEVKAYLDFRE [CHAC2_Y78] ?
0.584

Same thing, different sequence: NNRVFYGNSDR [RS1_Y177]
0.375

Others:
So what's the measured phosphorylation enrichment for this one? KDPPDYKYQPR [SOX9_Y172_H169P]
0.461
